molecular target: soluble IGF-1R (UniProt P08069); experiment: phage ELISA; IGF-1R ratio over background divided by IR ratio
No end group written: not given here.
observedProperty: IGF-1R/IR ratio comparison

binder	observedProperty	reportedResult
DYKDAGTPAQVGXNRLWSVWPGEHWNTVDPFYNKLSELLRESGAAAAGAP (peptide, not shown: large carriers, not fully specified; X: residue not identified in the source) [B6L-4-A7-IR]	IGF-1R/IR ratio comparison	1.8
DYKDAGSVTSFYDAMEQLVATGTSAAAAGAP (peptide, not shown: large carriers) [20E2A-3-A4-IGFR]	IGF-1R/IR ratio comparison	1.4
DYKDLSCLAYSRHGIWRPSTDLGLGRSVGEGSVSTRWRGYDWFEAAAGAP (peptide, not shown: large carriers) [40F-4-D1-IGFR]	IGF-1R/IR ratio comparison	13.1
DYKDCSMAAVAEAGDDDDPFYHKLSELCQGSAAAGAP (peptide, not shown: large carriers) [B6Hα-3-F1-IR]	IGF-1R/IR ratio comparison	1.8
DYKDRCGDEEGWQENRRDDPFYHKLSELFGGCAAAGAP (peptide, not shown: large carriers) [B6Hα-3-E5-IR]	IGF-1R/IR ratio comparison	2.9
DYKDGCITAENGAGDPFYHKLSELGGCSAAAGAP (peptide, not shown: large carriers) [B6Hα-1-B3-IR]	IGF-1R/IR ratio comparison	2.9
